System: SR leukemia
Experiment: NCI-60 one-dose screen, 48 h
Conditions: 10 µM unless noted
This is part of a sample that, as a whole, favours compounds with a hit. Of some 83,000 tested, about 20% had one in any assay. Activity calls are given as the source filed them. How the source made its calls: active means growth percent below 10; inactive means the rest.
Valid outcomes are listed here; reply with one: Yes = active, No = inactive

Compound	Category Label
CCOC(=O)N[C@H]1CCc2c(Br)c(OC)c(OC)c(OC)c2-c2ccc(SC)c(=O)cc21	Yes
COC(=O)[C@H](C[C@H](Cc1ccccc1)NC(=O)c1csc([C@@H](C[C@H](C(C)C)N(C)C(=O)[C@@H](NC(=O)[C@H]2CCCCN2C)C(C)C)OC(C)=O)n1)NC(=O)OCc1ccccc1	Yes
Cc1ccc(S(=O)(=O)F)cc1C(=O)O	No
COc1ccc2nc(NC(=O)COc3cc(/C=C\c4cc(OC)c(OC)c(OC)c4)ccc3OC)sc2c1	No
O=C(O)CNC(=O)C(Cl)(Cl)Cl	No
COC1OC(CO)C(O)C(O)[CH]1[Hg][O]C(C)=O (configuration not stated)	No
CSc1nc(Cl)cc(N2CC2)n1	No
Clc1cccc(Cl)c1Cl	No
CC(C)(C)N1CC1C#N (configuration not stated)	No
CC(=O)O[C@H](C[C@H](C(C)C)N(C)C(=O)[C@@H](NC(=O)[C@H]1CCCCN1C)C(C)C)c1nc(C(=O)N[C@@H](Cc2ccccc2)C[C@H](C)C(=O)O)c(CCOCc2ccccc2)s1	Yes

Task item: Identify the outcome logged in this assay for the compound shown: C/C(=C\c1cc(C(F)(F)F)nn1CCNC(=O)OC(C)(C)C)[C@@H]1C[C@@H]2O[C@]2(C)CCC[C@H](C)[C@H](O)[C@@H](C)C(=O)C(C)(C)[C@@H](O)CC(=O)O1
Reply: No

Task item: Also Nc1c(F)cc(-c2nc3cc(F)ccc3[se]2)cc1F , if possible.
Reply: No

Task item: Also COC(=O)[C@H](Cc1ccccc1)NC(=O)c1csc([C@@H](C[C@H](C(C)C)N(C)C(=O)[C@@H](NC(=O)[C@H]2CCCCN2C)C2CC2)OC(C)=O)n1 , if possible.
Reply: Yes

Task item: Also CCCCCCCCCCCCCCCCCC1OC[C@@H](COC(=O)O[C@@H](C(=O)O[C@H]2C[C@@]3(O)[C@@H](OC(=O)c4ccccc4)[C@@H]4[C@]5(OC(C)=O)CO[C@@H]5C[C@H](O)[C@@]4(C)C(=O)[C@H](OC(C)=O)C(=C2C)C3(C)C)[C@@H](NC(=O)c2ccccc2)c2ccccc2)O1 (some centres not stated) , if possible.
Reply: No

Task item: Also CC(C)CCC(=O)O[C@H]1CC[C@H]2[C@@H]3CCC4=CC(=O)CC[C@]4(C)[C@H]3CC[C@]12C , if possible.
Reply: No

Task item: Also C[C@]12C[C@@H](CO)[C@H](O)C[C@@H]1CC[C@@H]1[C@@H]2CC[C@]2(C)[C@@H](O)CC[C@@H]12 , if possible.
Reply: No

Task item: Also CCCC[C@H](NC(=O)[C@H]1CCCN1C)C(=O)N(C)[C@H](C[C@@H](OC(C)=O)c1nc(C(=O)N[C@@H](Cc2ccccc2)C[C@H](C)C(=O)OCC)cs1)C(C)C , if possible.
Reply: Yes
